For each record, write down the corresponding ED50.
- Test system: Rattus norvegicus
- assayProtocol: Effective dose required for analgesic activity by trypsin-induced hyperalgesia assay at 20 mg/kg by oral administration in rats
- Assay type: functional
One number for each entry, in mg/kg.

Look over these answered cases.
smilesText: CNC(=O)/C=C1\CCc2cc(F)c(F)cc21
targetOrTestSystem: Rattus norvegicus
ED50 (mg/kg): 9

smilesText: CC(C)NC(=O)/C=C1\CCc2ccc(F)cc21
targetOrTestSystem: Rattus norvegicus
ED50 (mg/kg): 9

smilesText: CNC(=O)/C=C1\CCc2c(F)cc(F)cc21
targetOrTestSystem: Rattus norvegicus
ED50 (mg/kg): 13

smilesText: NC(=O)/C=C1\CCc2cc(F)cc(F)c21
targetOrTestSystem: Rattus norvegicus
ED50 (mg/kg): 10

smilesText: NC(=O)/C=C1\CCc2cc(F)c(F)cc21
targetOrTestSystem: Rattus norvegicus
ED50 (mg/kg): 19

smilesText: CNC(=O)/C=C1\CCc2ccc(F)cc21
targetOrTestSystem: Rattus norvegicus
ED50 (mg/kg): 25

smilesText: NC(=O)/C=C1\CCc2cc(Cl)ccc21
targetOrTestSystem: Rattus norvegicus
ED50 (mg/kg): 30

Let us examine a further case.
Sure, the documented ED50 for NC(=O)/C=C1\CCc2ccccc21 is 9
